In this section, each of the compounds is paired with its reported TGI.
tested on: RPMI-8226 leukemia; assay: NCI tumour cell line growth inhibition, 48 h

| COMPOUND | REPORTED_RESULT |
| --- | --- |
| COc1cccc(/C=C\c2ccc(O)cc2)c1 | > 100 µM |

-- ask Entry under review: [CH3][Sn]([CH3])([CH3])[O][N+](=O)[O-] . Reported TGI?
-- reply > 10 µM

-- ask Again, but for COc1ccc(N(C)c2nc(Cl)nc3cnn(C)c23)cc1
-- reply > 100 µM

-- ask Again, but for C#CC1NC(=O)C1N(CC)CC (stereo unspecified)
-- reply > 100 µM

====

test system: TK-10 renal; experiment: NCI tumour cell line growth inhibition, 48 h
MEASUREMENT_TYPE: TGI

A selection of reference data follows.
| COMPOUND | TGI |
| --- | --- |
| CNC(=O)NS(=O)(=O)c1ccc(C)cc1 | > 100 µM |
| CCN1CCC(O)(c2ccc(O)cc2)C(C(=O)c2ccc(O)cc2)C1 (stereo unspecified) | 31.5 µM |
| O=C1CC2SC(COCc3ccccc3)(CCN2Cc2ccccc2)C1 (stereo unspecified) | 76.3 µM |
| O=Nc1c(O)cc(Nc2cccnc2)c2ccccc12 | > 100 µM |
| FC(F)(F)c1cc(Nc2ccc3cc(OCCCN4CCOCC4)ccc3n2)ccc1Cl | 5.86 µM |
| Cc1ccc(S(=O)(=O)N2CCc3ccc(O)c4c3C2Cc2ccc3c(c2-4)OCO3)cc1 (stereo unspecified) | 29.2 µM |
| C/C(=N/Nc1nc(C)cc(=O)[nH]1)C(=O)O | > 100 µM |
| C=CCN(N=O)C(=O)NCCCCC(NC(C)=O)C(=O)NCc1ccccc1 (stereo unspecified) | > 100 µM |
| Cc1ccc(N=C2C(c3ccccc3)=C(SC3=C(c4ccccc4)C(=Nc4ccc(C)cc4)c4ccccc43)c3ccccc32)cc1 | > 100 µM |
| C=C(CCCO)[C@@H]1CC[C@@](C)(O)[C@H]1C | > 100 µM |

For the next question, use this compound.
-- ask Reported TGI for TK-10 renal, given COc1ccc(-c2cc(=O)c3c(O)cc(O)cc3o2)c(OC)c1OC ?
-- reply > 100 µM

====

test system: PC-3 prostate; assay: NCI tumour cell line growth inhibition, 48 h
In this section, each of the compounds is paired with its reported TGI.

A selection of reference data follows.
| COMPOUND | TARGET_ENTITY | TGI |
| --- | --- | --- |
| c1ccc([P+](c2ccccc2)(c2ccccc2)C2c3ccccc3-c3ccccc32)cc1 | PC-3 prostate | 5.46 µM |
| COCCn1cc(-c2csc(-c3c[nH]c4ccc(Br)cc34)n2)c2cccnc21 | PC-3 prostate | > 100 µM |
| O=c1c2c(F)c(F)c(F)c(F)c2sc2nccn12 | PC-3 prostate | 35.9 µM |
| O=C(O[C@H]1CCN2C[C@H]3C[C@H](CN4C(=O)CCC[C@H]34)[C@@H]2C1)c1ccc(O)cc1 | PC-3 prostate | > 100 µM |
| Cc1cc(Cl)cc(Cc2cc(Cl)cc(C)c2O)c1O | PC-3 prostate | 8.68 µM |

-- ask Entry under review: O=Nc1c(O)cc(Nc2cccnc2)c2ccccc12 . Reported TGI?
-- reply > 100 µM

-- ask Again, but for Nc1ncnc2c1ccn2[C@@H]1O[C@H]([C@H](O)c2ccc(Cl)c(F)c2)[C@@H](O)[C@H]1O
-- reply > 100 µM

-- ask Again, but for COc1ccc(N(C)c2nc(Cl)nc3cnn(C)c23)cc1
-- reply > 100 µM

-- ask Again, but for CC(=O)OCC1OC(n2nc(Cc3ccccc3)c(=S)[nH]c2=S)C(OC(C)=O)C(OC(C)=O)C1OC(C)=O (centres undefined)
-- reply > 100 µM

====

system: HCC-2998 colon; test: NCI tumour cell line growth inhibition, 48 h
In this section, each of the compounds is paired with its reported TGI.

A selection of reference data follows.
| COMPOUND | REPORTED_RESULT |
| --- | --- |
| CN(C)CCNC(=O)NC[C@H]1CC[C@@H]2[C@H](O1)c1cc(C(F)(F)F)ccc1N[C@H]2c1ccccc1 | 18.6 µM |
| CCCCOC(=O)c1cc(C(=CCC[C@H]2CC[C@@]3(C)[C@@H](CC[C@@H]4[C@@H]3CC[C@]3(C)[C@@H](C(C)CCCC(C)C)CC[C@@H]43)C2)c2cc(Cl)c(O)c(C(=O)OCCCC)c2)cc(Cl)c1O (stereo partly drawn) | > 50 µM |

For the next question, use this compound.
-- ask Reported TGI for HCC-2998 colon, given COC1/C=C/C(C)C(C(C)C(OC)C(C)CCC(=O)C(C)C(CC(=O)O)OC)OC(=O)/C=C/C=C(\C)CC(OC)CC2=CC(=O)O[C@H](C2)C(C)C(OC)CC(OC)/C=C/C(C)C(OC)C1 (stereo partly drawn) ?
-- reply > 4.35 µM

====

test system: NCI-H23 lung; assay: NCI tumour cell line growth inhibition, 48 h
In this section, each of the molecules is paired with its reported TGI.

| MOLECULE | TGI |
| --- | --- |
| CC1CN=C(Nc2ccc(F)c(Cl)c2)S1 (stereo unspecified) | > 100 µM |
| C=CC1(C)OC2(CCN(C(=O)OCC)CC2)OC1C (stereo unspecified) | > 100 µM |
| CNC(=O)NS(=O)(=O)c1ccc(C)cc1 | > 100 µM |

-- ask Reported TGI for NCI-H23 lung, given CC1=CCC2CC1NC(=O)CCOCCC(=O)NC2(C)C (stereo unspecified) ?
-- reply > 100 µM

-- ask Again, but for COc1cc(/C=C2/C(=O)N(C(=O)OCc3ccccc3)C(Cc3cc(OC)c(OC)c(C)c3OC)C(=O)N2Cc2ccccc2)c(OC)c(C)c1OC (stereo unspecified)
-- reply > 100 µM

-- ask Again, but for O=c1c([OH2+])c(-c2ccc(O)cc2[O-])oc2cc(O)cc([O-])c12.O=c1c([OH2+])c(-c2ccc(O)cc2[O-])oc2cc(O)cc([O-])c12.[Ti+4]
-- reply > 100 µM

-- ask Again, but for CC(C)C1N2CCCCC2[C@@H]2c3[nH]c4ccccc4c3CCN12 (stereo partly specified)
-- reply > 100 µM

-- ask Again, but for COc1cc2c[n+](C)c3c(c2cc1OC)Cc1cc2c(cc1-3)OCO2
-- reply > 100 µM

-- ask Again, but for O=C1C2C3C=CC(C2C(=O)N1CN1CCSCC1)C1C2C(=O)N(CN4CCSCC4)C(=O)C2C31 (stereo unspecified)
-- reply > 100 µM

====

system: SF-539 CNS; test: NCI tumour cell line growth inhibition, 48 h
MEASUREMENT_TYPE: GI50

A selection of reference data follows.
| COMPOUND | GI50 |
| --- | --- |
| COc1cccc(Nc2nccc(-c3cnn4ncccc34)n2)c1 | 50.2 nM |
| CN(C)c1ccc(N=C2C=CC(=O)c3ccccc32)cc1 | 3110 nM |
| Cc1ccc(OCC2OC(n3cnc4c(Br)nc(Br)nc43)CC2Oc2ccc(C)cc2)cc1 (stereo not drawn) | 466 nM |
| Cc1ccc(S(=O)(=O)Nc2ccc(-c3cc(-c4cccc(F)c4)c(C#N)c(N)n3)cc2)cc1 | 1560 nM |
| Cc1cc(Cl)cc(Cc2cc(Cl)cc(C)c2O)c1O | 2450 nM |
| CCCN1CCC(c2ccc(Nc3nc(Nc4cc(F)ccc4C(N)=O)c4cc[nH]c4n3)c(OC)c2)CC1 | 2950 nM |
| C#Cc1cccc(NC(=O)c2ccc(NC(=O)CCl)cc2)c1 | 12600 nM |

For the next question, use this compound.
-- ask Entry under review: COc1ccc2c(c1)C(=O)c1c-2c(Nc2cccc(C(C)=O)c2)nc2ccccc12 . Reported GI50?
-- reply 10200 nM

====

In this section, each of the compounds is paired with its reported TGI.
system: SNB-19 CNS; experiment: NCI tumour cell line growth inhibition, 48 h

| COMPOUND | REPORTED_RESULT |
| --- | --- |
| O=Nc1c(O)cc(Nc2cccnc2)c2ccccc12 | 8.39 µM |
| Nc1ncnc2c1ccn2[C@@H]1O[C@H]([C@H](O)c2ccc(Cl)c(F)c2)[C@@H](O)[C@H]1O | > 100 µM |
| O=C(O)CCC(C(=O)O)N1C(=O)C2C3CCC(C3)C2C1=O (stereo not given) | > 100 µM |
| COC(=O)C1C=CCON2CCc3c(n(S(=O)(=O)c4ccccc4)c4ccccc34)C12 (stereo not given) | > 77.7 µM |

For the next question, use this compound.
-- ask Entry under review: O=C1c2ccccc2C(=O)N1CC(CN1C(=O)c2ccccc2C1=O)(C(=O)OCc1ccccc1)C(=O)OCc1ccccc1 . Reported TGI?
-- reply > 100 µM

// provenance: PubChem BioAssay (NCI)
